# measurement notes: Intrinsic clearance in rat liver microsomes at 1 uM preincubated for 5 mins followed by NADPH addition measured up to 30 mins by LC-MS/MS analysis
# Format: ADME
# condition context: 0.5 h
measured parameter: intrinsic clearance (CLint) (mL/min/g)

As a guide, the following entries are already answered.
{"columns": ["compound", "unit info", "intrinsic clearance (CLint)"],
 "data": [
  ["COc1ccc(CN(Cc2ccc(OC)cc2)Cc2ccc(-n3ncc(C(=O)O)c3N)cc2)cc1", "mL/min/g", 2.5],
  ["COc1ccc(-c2noc(C(Cc3ccc(-n4ncc(C(=O)O)c4N)cc3)c3ccc(F)cc3)n2)cc1 (centres undefined)", "mL/min/g", 3],
  ["COc1ccc(C(Cc2ccc(-n3ncc(C(=O)O)c3N)cc2)c2nc(-c3cccc(F)c3)no2)cc1 (centres undefined)", "mL/min/g", 3],
  ["Nc1c(C(=O)O)cnn1-c1ccc(CN(Cc2ccc(F)cc2)Cc2ccc(Cl)cc2)cc1", "mL/min/g", 3],
  ["Nc1c(C(=O)O)cnn1-c1ccc(CN(Cc2ccc(F)cc2)Cc2ccc(F)c(F)c2)cc1", "mL/min/g", 3]
]}

[P] Nc1c(C(=O)O)cnn1-c1ccc(CC(c2ccc(F)cc2)c2nc(-c3ccc(Cl)cc3)no2)cc1 (centres undefined)
[Q] Nc1c(C(=O)O)cnn1-c1ccc(CN(Cc2ccc(Cl)cc2)Cc2ccc(F)c(F)c2)cc1
Query block: Quick check, higher intrinsic clearance (CLint) between P and Q ? Reply briefly: the label of your chosen item.
Result block: P
(P: 3 mL/min/g, Q: 2 mL/min/g)

[I] COc1ccc(CN(Cc2ccc(F)cc2)Cc2ccc(-n3ncc(C(=O)O)c3N)cc2)cc1OC
[II] COc1ccc(C(Cc2ccc(-n3ncc(C(=O)O)c3N)cc2)c2nc(-c3ccc(Cl)cc3)no2)cc1 (centres undefined)
Query block: # argmax over intrinsic clearance (CLint) for candidates I and II The response must carry the label of the picked entry.
Result block: I

Origin of values: ChEMBL document CHEMBL3870366
